Activity values by entry
Test system: Persicaria lapathifolia
Test: Herbicidal activity against Persicaria lapathifolia assessed as killing at 2 kg/ha
Type: functional
recordedEndpoint: Activity (%)

compound	resultNumber
Clc1ccc(C2=NOCc3ccccc32)cc1	0
CCCCCCCC(=O)Oc1c(I)cc(C#N)cc1I [IOXYNIL OCTANOATE]	90
Clc1cccc(C2=NOCc3ccccc32)c1	60
Cc1cc(C2=NOCc3ccccc32)no1	0
Clc1ccccc1C1=NOCc2ccccc21	0
Fc1ccc(C2=NOCc3ccccc32)cc1Cl	100
Fc1ccc2c(c1)C(c1ccc(F)c(Br)c1)=NOC2	80
Cc1cc(C2=NOCc3ccccc32)on1	0
Cn1ccnc1C1=NOCc2ccccc21	0
Clc1ccc(C2=NOCc3ccccc32)s1	20
Clc1cc(C2=NOCc3ccccc32)ccn1	60

* * *

Test system: Digitaria ciliaris
Assay: Herbicidal activity against Digitaria ciliaris assessed as killing at 2 kg/ha
Type: functional

inputSmiles	measuredTarget	Activity
COc1cccc(C2=NOCc3ccccc32)c1	Digitaria ciliaris	20%
Clc1ccccc1C1=NOCc2ccccc21	Digitaria ciliaris	0%
FC(F)(F)c1cccc(C2=NOCc3ccccc32)c1	Digitaria ciliaris	90%
Fc1ccc2c(c1)CON=C2c1ccc(F)c(Cl)c1	Digitaria ciliaris	100%
Clc1cc(Cl)cc(C2=NOCc3ccccc32)c1	Digitaria ciliaris	0%
Fc1ccc2c(c1)C(c1ccc(F)c(Br)c1)=NOC2	Digitaria ciliaris	100%
Fc1ccc2c(c1)CON=C2c1ccc(F)c(Br)c1	Digitaria ciliaris	100%
Clc1ccc(C2=NOCc3ccccc32)cc1	Digitaria ciliaris	20%

* * *

Tested on: Digitaria ciliaris
Experiment: Herbicidal activity against Digitaria ciliaris assessed as killing at 2 kg/ha
Format: functional
Item-by-item account of Activity
recordedEndpoint: Activity (%)

molecule	resultNumber
N#Cc1cccc(C2=NOCc3ccccc32)c1	40
Ic1cccc(C2=NOCc3ccccc32)c1	60
Fc1ccc(C2=NOCc3c(F)cccc32)cc1Cl	100
Fc1ccc(C2=NOCc3ccccc32)cc1Cl	100
Cn1ccnc1C1=NOCc2ccccc21	0
Fc1ccc2c(c1)C(c1ccc(F)c(Cl)c1)=NOC2	100
c1ccc(C2=NOCc3ccccc32)cc1	20
Fc1cc(C2=NOCc3ccccc32)ccc1Cl	90
Clc1cc(C2=NOCc3ccccc32)ccn1	60
Cc1cc(C2=NOCc3ccccc32)on1	0
Fc1ccc(C2=NOCc3ccccc32)cc1F	80
Fc1ccc(C2=NOCc3c(Cl)cccc32)cc1Cl	0
Fc1ccc(C2=NOCc3ccccc32)cc1Br	100
Fc1cccc(C2=NOCc3ccccc32)c1	60
Cc1cc(C2=NOCc3ccccc32)no1	0
CCCCCCCC(=O)Oc1c(I)cc(C#N)cc1I [IOXYNIL OCTANOATE]	80
Clc1cccc(C2=NOCc3ccccc32)c1Cl	0
Oc1cccc(C2=NOCc3ccccc32)c1	0
Brc1cccc(C2=NOCc3ccccc32)c1	100
Clc1ccc(C2=NOCc3ccccc32)s1	40
Clc1ccc(Cl)c(C2=NOCc3ccccc32)c1	0
Fc1ccc(C2=NOCc3ccc(Cl)cc32)cc1Cl	100
O=[N+]([O-])c1cccc(C2=NOCc3ccccc32)c1	60
Clc1cccc(C2=NOCc3ccccc32)c1	100
Clc1ccc(C2=NOCc3ccccc32)cc1Cl	100
Fc1ccc(C2=NOCc3ccccc32)cc1C(F)(F)F	100
Fc1ccc(C2=NOCc3cc(Cl)ccc32)cc1Cl	60
Cc1cccc(C2=NOCc3ccccc32)c1	60
